This collection of values is drawn from ChEMBL document CHEMBL1140385.

- PROTOCOL TEXT: Maximum time taken to reach Cmax was determined in mouse after peroral administration at 200 mg/kg
- Format: ADME, organism-based
- Parameters: dose 200 mg/kg, route oral
- MEASUREMENT SETUP: in vivo, po
ENDPOINT: Tmax
Note: a bare number is incomplete; add the unit.

Q: Dear colleague, I am looking for the recorded Tmax of the following compound: CCc1cc(Nc2cc(=O)n(CCCCN3CCOCC3)c(=O)[nH]2)ccc1C.Cl
Result: 1 h

----------
- MEASURED TARGET: DNA polymerase III PolC-type (Bacillus subtilis (strain 168), UniProt P13267)
- Sequence (P13267 whole entry): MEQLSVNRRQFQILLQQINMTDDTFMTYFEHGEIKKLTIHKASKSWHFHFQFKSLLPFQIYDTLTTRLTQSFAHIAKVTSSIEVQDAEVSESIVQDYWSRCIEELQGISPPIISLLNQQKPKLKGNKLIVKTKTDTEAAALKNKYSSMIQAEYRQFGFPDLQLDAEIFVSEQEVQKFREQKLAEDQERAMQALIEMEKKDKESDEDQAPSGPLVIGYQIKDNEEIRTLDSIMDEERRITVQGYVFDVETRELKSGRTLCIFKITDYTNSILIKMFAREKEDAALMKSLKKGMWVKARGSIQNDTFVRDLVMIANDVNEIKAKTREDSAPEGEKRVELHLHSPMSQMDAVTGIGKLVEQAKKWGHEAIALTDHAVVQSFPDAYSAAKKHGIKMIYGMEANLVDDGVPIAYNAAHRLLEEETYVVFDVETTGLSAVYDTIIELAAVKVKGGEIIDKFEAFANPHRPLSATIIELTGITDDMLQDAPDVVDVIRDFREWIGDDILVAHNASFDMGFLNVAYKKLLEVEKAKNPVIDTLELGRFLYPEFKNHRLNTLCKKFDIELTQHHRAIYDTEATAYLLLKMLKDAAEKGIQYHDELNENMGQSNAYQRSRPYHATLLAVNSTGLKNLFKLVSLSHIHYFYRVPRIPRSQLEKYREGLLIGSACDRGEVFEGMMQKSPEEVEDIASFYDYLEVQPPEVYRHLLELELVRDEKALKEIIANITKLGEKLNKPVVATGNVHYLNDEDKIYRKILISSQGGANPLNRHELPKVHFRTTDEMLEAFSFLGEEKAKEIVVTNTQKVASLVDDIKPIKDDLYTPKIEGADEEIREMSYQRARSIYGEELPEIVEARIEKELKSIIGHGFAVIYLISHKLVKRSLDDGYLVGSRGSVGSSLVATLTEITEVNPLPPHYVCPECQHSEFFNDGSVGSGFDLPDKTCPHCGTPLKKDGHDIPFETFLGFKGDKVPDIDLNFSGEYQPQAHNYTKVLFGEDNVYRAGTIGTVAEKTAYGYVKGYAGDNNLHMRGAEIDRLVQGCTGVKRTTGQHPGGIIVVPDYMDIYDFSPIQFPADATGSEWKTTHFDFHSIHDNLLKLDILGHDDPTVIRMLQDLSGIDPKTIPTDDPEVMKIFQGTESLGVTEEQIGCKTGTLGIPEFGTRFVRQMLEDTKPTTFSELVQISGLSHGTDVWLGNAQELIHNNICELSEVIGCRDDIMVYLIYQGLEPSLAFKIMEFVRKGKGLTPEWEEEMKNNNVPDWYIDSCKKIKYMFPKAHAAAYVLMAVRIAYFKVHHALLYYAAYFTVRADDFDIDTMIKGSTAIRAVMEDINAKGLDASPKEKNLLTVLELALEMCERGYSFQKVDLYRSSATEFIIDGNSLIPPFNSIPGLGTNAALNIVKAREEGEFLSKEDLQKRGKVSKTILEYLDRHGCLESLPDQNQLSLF
- PROTOCOL TEXT: Inhibitory concentration against Bacillus subtilis DNA polymerase IIIC using [3H]dTMP 250 pM (30 degree C for 10 min)
ENDPOINT: Ki (nM)
Answers are plain numbers, in nM.

Some compounds with known Ki results, for comparison:
>  <CHEMICAL STRING>
CCc1cc(Nc2cc(=O)n(CCOCCOc3ccccc3)c(=O)[nH]2)ccc1C

>  <UNIT SPEC>
nM

>  <Ki>
56

$$$$
>  <CHEMICAL STRING>
CCc1cc(Nc2cc(=O)n(CCCCCCCCCO)c(=O)[nH]2)ccc1C

>  <UNIT SPEC>
nM

>  <Ki>
87

$$$$
>  <CHEMICAL STRING>
CCc1cc(Nc2cc(=O)n(CCCCN(CCO)CCO)c(=O)[nH]2)ccc1C

>  <UNIT SPEC>
nM

>  <Ki>
21

$$$$

Hi there! I need Ki for each item below, if you can.
1. CCc1cc(Nc2cc(=O)n(CCCCNS(=O)(=O)c3ccc(C)cc3)c(=O)[nH]2)ccc1C
2. CCc1cc(Nc2cc(=O)n(CCCCO)c(=O)[nH]2)ccc1C
3. CCc1cc(Nc2cc(=O)n(CCOC)c(=O)[nH]2)ccc1C
4. CCc1cc(Nc2cc(=O)n(CCCCCN)c(=O)[nH]2)ccc1C.Cl
5. CCc1cc(Nc2cc(=O)n(CCCCCCCCN3CCOCC3)c(=O)[nH]2)ccc1C

Result:
1: 230; 2: 55; 3: 127; 4: 185; 5: 76

Hi there! I need Ki for each item below, if you can.
1. CCc1cc(Nc2cc(=O)n(CCCOC)c(=O)[nH]2)ccc1C
2. CCc1cc(Nc2cc(=O)n(CCCCCOC(C)=O)c(=O)[nH]2)ccc1C
3. CCc1cc(Nc2cc(=O)n(CCCCCCCCCCO)c(=O)[nH]2)ccc1C
4. CCc1cc(Nc2cc(=O)n(CCCCNCCO)c(=O)[nH]2)ccc1C
5. CCc1cc(Nc2cc(=O)n(CCOC(C)=O)c(=O)[nH]2)ccc1C
6. CCc1cc(Nc2cc(=O)n(CCCO)c(=O)[nH]2)ccc1C

Result:
120
68
51
28
120
130

Hi there! I need Ki for each item below, if you can.
1. CCc1cc(Nc2cc(=O)n(CCCOC(C)=O)c(=O)[nH]2)ccc1C
2. CCc1cc(Nc2cc(=O)n(CCCCN3CCOCC3)c(=O)[nH]2)ccc1C.Cl
3. CCc1cc(Nc2cc(=O)n(CCCCCO)c(=O)[nH]2)ccc1C

Result:
[120, 52, 43]

----------
- Tested on: Staphylococcus aureus
- PROTOCOL TEXT: Serum effect on MIC against Staphylococcus aureus (Smith) as ratio of MIC value in presence and absence of 50% fetal calf serum
- Assay type: functional
ENDPOINT: MIC+/MIC-
One number for each entry.

>  <CHEMICAL STRING>
CCc1cc(Nc2cc(=O)n(CCCCC#N)c(=O)[nH]2)ccc1C

>  <REPORTED>
6

$$$$
>  <CHEMICAL STRING>
CCc1cc(Nc2cc(=O)n(CCOC)c(=O)[nH]2)ccc1C

>  <REPORTED>
6.9

$$$$
>  <CHEMICAL STRING>
CCc1cc(Nc2cc(=O)n(CCCCOC)c(=O)[nH]2)ccc1C

>  <REPORTED>
7.4

$$$$
>  <CHEMICAL STRING>
CCc1cc(Nc2cc(=O)n(CCCCCO)c(=O)[nH]2)ccc1C

>  <REPORTED>
11.6

$$$$

Hi there! I need MIC+/MIC- for each item below, if you can.
1. CCc1cc(Nc2cc(=O)n(CCCCNC(=O)C3CC3)c(=O)[nH]2)ccc1C
2. CCc1cc(Nc2cc(=O)n(CCCCCCO)c(=O)[nH]2)ccc1C
3. CCc1cc(Nc2cc(=O)n(CCCCCCCCO)c(=O)[nH]2)ccc1C
4. CCc1cc(Nc2cc(=O)n(CCCN3CCOCC3)c(=O)[nH]2)ccc1C
5. CCc1cc(Nc2cc(=O)n(CCCCN3CCOCC3)c(=O)[nH]2)ccc1C.Cl
6. CCc1cc(Nc2cc(=O)n(C/C=C/CO)c(=O)[nH]2)ccc1C
7. CCc1cc(Nc2cc(=O)n(CCOCCOC)c(=O)[nH]2)ccc1C

Result:
1. 14.9
2. 8.7
3. 21.3
4. 2.9
5. 1.7
6. 4.8
7. 5.5

Hi there! I need MIC+/MIC- for each item below, if you can.
1. CCc1cc(Nc2cc(=O)n(CCCOC)c(=O)[nH]2)ccc1C
2. CCc1cc(Nc2cc(=O)n(CCCCN3CCOCC3)c(=O)[nH]2)ccc1C
3. CCc1cc(Nc2cc(=O)n(CCN3CCOCC3)c(=O)[nH]2)ccc1C
4. CCc1cc(Nc2cc(=O)n(CCCC#N)c(=O)[nH]2)ccc1C
5. CCc1cc(Nc2cc(=O)n(CCOCCO)c(=O)[nH]2)ccc1C
6. CCc1cc(Nc2cc(=O)n(CCCCO)c(=O)[nH]2)ccc1C
7. CCc1cc(Nc2cc(=O)n(CCCCNS(=O)(=O)c3cccs3)c(=O)[nH]2)ccc1C

Result:
1. 4.9
2. 2.3
3. 5.5
4. 5.4
5. 7.5
6. 7.5
7. 13.7

----------
- PROTOCOL TEXT: Half life in mouse after intravenous administration at 20 mg/kg
- Format: ADME, organism-based
- Parameters: dose 20 mg/kg, route intravenous
- MEASUREMENT SETUP: in vivo
ENDPOINT: half-life (min)
Give bare numbers, in min.

Q: Dear colleague, I am looking for the recorded half-life of the following molecule: CCc1cc(Nc2cc(=O)n(CCCCO)c(=O)[nH]2)ccc1C
Result: 33

----------
- PROTOCOL TEXT: Area under the plasma concentration curve determined in mouse after subcutaneous administration at 20 mg/kg
- Type: ADME, organism-based
- Set-up: dose 20 mg/kg, route subcutaneous
- MEASUREMENT SETUP: in vivo, sc
Record form. Attribute: AUC. Fill in for each entry.
Note: a bare number is incomplete; add the unit.

>  <CHEMICAL STRING>
CCc1cc(Nc2cc(=O)n(CCCCO)c(=O)[nH]2)ccc1C

>  <AUC>
7780 ng·h/mL

$$$$

Then this molecule:
Q: Dear colleague, I am looking for the recorded AUC of the following molecule: CCc1cc(Nc2cc(=O)n(CCCCN3CCOCC3)c(=O)[nH]2)ccc1C.Cl
Result: 6770 ng·h/mL

----------
- PROTOCOL TEXT: Area under the plasma concentration curve determined in mouse after subcutaneous administration at 60 mg/kg
- Type: ADME, organism-based
- Parameters: dose 60 mg/kg, route subcutaneous
- MEASUREMENT SETUP: in vivo, sc
ENDPOINT: AUC

Q: Dear colleague, I am looking for the recorded AUC of the following molecule: CCc1cc(Nc2cc(=O)n(CCCCO)c(=O)[nH]2)ccc1C
Result: 20200 ng·h/mL

----------
- PROTOCOL TEXT: Area under the plasma concentration curve determined in mouse after subcutaneous administration at 200 mg/kg
- Assay type: ADME, organism-based
- Parameters: dose 200 mg/kg, route subcutaneous
- MEASUREMENT SETUP: in vivo, sc
ENDPOINT: AUC (ng·h/mL)
One number for each entry, in ng·h/mL.

Q: Dear colleague, I am looking for the recorded AUC of the following compound: CCc1cc(Nc2cc(=O)n(CCCCN3CCOCC3)c(=O)[nH]2)ccc1C.Cl
Result: 26900

----------
- Tested on: Staphylococcus aureus
- PROTOCOL TEXT: In vitro minimum inhibitory concentration against Staphylococcus aureus (Smith) upon incubation at 37 degree C for 16 to 24 hr by dissolving in DMSO (1%)
- Type: functional
ENDPOINT: MIC (µg/mL)
Give bare numbers, in µg/mL.

Some compounds with known MIC results, for comparison:
>  <COMPOUND>
CCc1cc(Nc2cc(=O)n(CCCN3CCOCC3)c(=O)[nH]2)ccc1C

>  <REPORTED>
10

$$$$
>  <COMPOUND>
CCc1cc(Nc2cc(=O)n(CCN3CCN(C(=O)c4ccccc4)CC3)c(=O)[nH]2)ccc1C

>  <REPORTED>
10

$$$$
>  <COMPOUND>
CCc1cc(Nc2cc(=O)n(CCCCCN)c(=O)[nH]2)ccc1C.Cl

>  <REPORTED>
10

$$$$
>  <COMPOUND>
CCc1cc(Nc2cc(=O)n(CCCC(O)CO)c(=O)[nH]2)ccc1C (stereo not drawn)

>  <REPORTED>
20

$$$$
>  <COMPOUND>
CCc1cc(Nc2cc(=O)n(CCCCN)c(=O)[nH]2)ccc1C.Cl

>  <REPORTED>
10

$$$$
>  <COMPOUND>
CCc1cc(Nc2cc(=O)n(CCOCCOCCO)c(=O)[nH]2)ccc1C

>  <REPORTED>
10

$$$$
>  <COMPOUND>
CCc1cc(Nc2cc(=O)n(CCOC)c(=O)[nH]2)ccc1C

>  <REPORTED>
2.5

$$$$
>  <COMPOUND>
CCc1cc(Nc2cc(=O)n(CCCCCCCCCO)c(=O)[nH]2)ccc1C

>  <REPORTED>
2.5

$$$$
>  <COMPOUND>
CCc1cc(Nc2cc(=O)n(CCCCNS(=O)(=O)c3ccc(C)cc3)c(=O)[nH]2)ccc1C

>  <REPORTED>
5

$$$$

Then this compound:
Q: Dear colleague, I am looking for the recorded MIC of the following compound: CCc1cc(Nc2cc(=O)n(CCCCOC)c(=O)[nH]2)ccc1C
Result: 5
